Reported IC50 values are given for each entry in this list.
System: Ba/F3 Parental
Experiment: Ba/F3 viability assay (CellTiter-Glo), parental
Assay type: cell-based
Settings: Mus musculus, BaF3, anti-proliferation
From the text: Inhibition of cell proliferation can be studied using Ba/F3 viability assays, including the Promega CellTiter-Glo cell viability assay. This assay can be used to study the effect of compounds described herein in the following assays: (1) Ba/F3 Parental; (2) Ba/F3 EGFR-Del19/T790M; (3); Ba/F3 EGFR-Del19/C797S; and (4) Ba/F3 EGFR-Del19/T790M/C797S.

| Compound | Target desc | IC50 |
| --- | --- | --- |
| C[C@H]1CCOc2c(cnn2C)-c2nccc(n2)Nc2cc3c(cn2)c(-c2ccn(C)c2)nn31 | Ba/F3 Parental | 100 to 1000 nM |

Identify the measured IC50 of C[C@H]1CCOc2c(cnn2C)-c2nccc(n2)Nc2cc3c(cn2)c(N2CC[C@H](N(C)C)C2)nn31 for Ba/F3 Parental.
100 to 1000 nM

Identify the measured IC50 of CC(C)n1cc(-c2nn3c4cc(ncc24)Nc2ccnc(n2)-c2cnn(C)c2OCC[C@@H]3C)cc1CN1CCOCC1 for Ba/F3 Parental.
100 to 1000 nM
